target: human c-Met (HGFR), full length, on the cell surface (human, UniProt P08581 25-1390); test: cell-based or functional assay
Sequence (P08581 25-1390 limits assumed): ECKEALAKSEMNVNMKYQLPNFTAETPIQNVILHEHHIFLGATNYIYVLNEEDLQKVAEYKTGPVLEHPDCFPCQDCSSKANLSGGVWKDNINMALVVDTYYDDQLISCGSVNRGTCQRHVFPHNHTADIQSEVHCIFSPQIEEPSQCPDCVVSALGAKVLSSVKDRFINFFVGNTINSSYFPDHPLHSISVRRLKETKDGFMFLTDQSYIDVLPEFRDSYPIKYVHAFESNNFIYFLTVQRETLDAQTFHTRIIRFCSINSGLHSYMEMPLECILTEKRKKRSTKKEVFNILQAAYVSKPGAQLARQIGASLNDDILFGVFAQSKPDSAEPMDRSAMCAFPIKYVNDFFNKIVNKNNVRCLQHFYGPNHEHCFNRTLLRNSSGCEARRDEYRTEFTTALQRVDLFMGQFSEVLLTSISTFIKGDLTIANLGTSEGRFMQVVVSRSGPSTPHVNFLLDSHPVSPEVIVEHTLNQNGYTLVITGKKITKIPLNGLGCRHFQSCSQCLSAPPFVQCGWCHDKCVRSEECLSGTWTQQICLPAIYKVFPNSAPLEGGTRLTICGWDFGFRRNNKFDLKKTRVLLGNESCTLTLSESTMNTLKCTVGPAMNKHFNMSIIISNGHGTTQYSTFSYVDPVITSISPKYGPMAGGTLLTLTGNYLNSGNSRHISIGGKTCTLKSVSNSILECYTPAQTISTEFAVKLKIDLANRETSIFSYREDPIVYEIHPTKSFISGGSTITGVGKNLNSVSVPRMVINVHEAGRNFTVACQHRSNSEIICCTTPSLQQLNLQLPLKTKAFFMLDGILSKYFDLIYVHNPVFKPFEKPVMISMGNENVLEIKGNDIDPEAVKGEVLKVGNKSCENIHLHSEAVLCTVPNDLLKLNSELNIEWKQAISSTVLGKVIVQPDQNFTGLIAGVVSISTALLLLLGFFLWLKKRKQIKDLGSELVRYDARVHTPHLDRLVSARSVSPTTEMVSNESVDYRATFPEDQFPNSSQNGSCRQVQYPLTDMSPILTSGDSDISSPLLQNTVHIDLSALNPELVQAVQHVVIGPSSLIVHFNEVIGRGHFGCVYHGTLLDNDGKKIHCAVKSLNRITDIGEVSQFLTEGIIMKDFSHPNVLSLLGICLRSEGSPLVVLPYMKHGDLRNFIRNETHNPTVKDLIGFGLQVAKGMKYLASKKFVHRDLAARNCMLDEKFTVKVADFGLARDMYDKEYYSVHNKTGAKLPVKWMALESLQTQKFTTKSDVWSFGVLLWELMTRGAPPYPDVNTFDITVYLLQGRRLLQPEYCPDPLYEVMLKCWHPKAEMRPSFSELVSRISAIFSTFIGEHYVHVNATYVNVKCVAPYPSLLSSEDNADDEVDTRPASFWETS
Reported Property: Efficacy (%), in vitro cytotoxicity, NCI-H596, +HGF
Param answer (str): number followed by unit.

Entry ADC1a (antibody, human IgG1, kappa, V domains shown, vc-seco-DUBA linker-drug on the engineered cysteine at HC position 41 (Kabat); DAR 1.7) VH: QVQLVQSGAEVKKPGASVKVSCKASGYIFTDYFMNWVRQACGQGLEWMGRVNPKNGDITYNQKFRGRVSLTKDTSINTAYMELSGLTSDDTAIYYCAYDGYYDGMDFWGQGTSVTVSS VL: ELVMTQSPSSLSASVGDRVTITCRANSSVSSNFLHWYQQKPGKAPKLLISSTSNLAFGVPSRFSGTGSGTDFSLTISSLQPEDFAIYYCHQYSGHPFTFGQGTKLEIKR : reported Efficacy (%), in vitro cytotoxicity, NCI-H596, +HGF = ?
40%

Entry ADC3a (antibody, human IgG1, kappa, V domains shown, vc-seco-DUBA linker-drug on the engineered cysteine at HC position 41 (Kabat); DAR 1.9) VH: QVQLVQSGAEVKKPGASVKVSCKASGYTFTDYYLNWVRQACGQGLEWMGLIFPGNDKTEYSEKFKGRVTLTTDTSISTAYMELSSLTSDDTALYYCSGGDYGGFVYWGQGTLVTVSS VL: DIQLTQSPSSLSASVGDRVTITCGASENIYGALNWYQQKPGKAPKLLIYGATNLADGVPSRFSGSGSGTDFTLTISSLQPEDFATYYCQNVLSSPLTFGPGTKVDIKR : reported Efficacy (%), in vitro cytotoxicity, NCI-H596, +HGF = ?
43%
